Responses Total: recorded values
- Test system: bed bug antennae
- Procedure text: Coupled gas chromatography-electroantennography (GC-EAG) of volatile extract from bed bug-exposed paper
- Set-up: species or system Cimex lectularius
- Cond: males plus females, 20 insects tested

Known results for compounds:
Compound: CCCCCCC=O (single isomer, unassigned)
Responses Total: 13
//
Compound: CC1=CCC2C(C1)C2(C)C (single isomer, unassigned)
Responses Total: 11
//
Compound: CCCCCCCCC(=O)O
Responses Total: 12
//
Compound: CCCCCC/C=C/C=O [(E)-2-Nonenal, (E)-2-nonenal]
Responses Total: 13
//
Compound: CCCCCCCC=O (single isomer, unassigned)
Responses Total: 19

Provide the documented Responses Total with bed bug antennae as the system for O=Cc1ccccc1 (single isomer, unassigned)
8

Another: CCCCCC=O (single isomer, unassigned)
9

How about CCCCC/C=C/C=O (single isomer, unassigned) [(E)-2-octenal] ?
16

Here is the next compound: CC/C=C/C=C/C(C)=O (single isomer, unassigned)
13

* * *

Each record here notes measured Visual inspection (no of responses) Response.
- Test system: bed bug antennae
- Procedure text: Coupled gas chromatography-electroantennography (GC-EAG) of volatile extract from bed bug-exposed paper
- Set-up: species or system Cimex lectularius
- Cond: total EAG responses, Table 8
Response field accepts a number only; no unit should be typed.

Some solved entries appear below for comparison.
Molecule: C=CC(O)CCCCC (racemic) [(RS)-1-Octen-3-ol, (RS)-1-octen-3-ol]
Result number: 11
//
Molecule: CCCCCCC=O (single isomer, unassigned)
Result number: 13

Would you mind telling me what Visual inspection (no of responses) Response value was observed for CC/C=C/C=C/C(C)=O (single isomer, unassigned) ?
13

// repeat for CCCCCC=O (single isomer, unassigned) and report
9

* * *

- Test system: bed bug antennae
- Procedure text: Coupled gas chromatography-electroantennography (GC-EAG) of volatile extract from bed bug-exposed paper
- Parameters: species or system Cimex lectularius
- Cond: males plus females, 20 insects tested
Observable: Responses Total
Output: the number by itself.

Using the record for CCCCOCCOCCOC(C)=O [2-(2-Butoxyethoxy)-acetate ethanol, 2-(2-butoxyethoxy)ethyl acetate] , report its Responses Total.
12

Record: CCCCCCCCC=O [Nonanal, nonanal]
17

Please give the result for CCCCCCCCCC=O [Decanal, decanal] too.
12

Further, for C=C1/C=C/[C@H](C(C)C)CC/C(C)=C/CC1 [(S)-(−)-Germacrene D, (S)-(−)-germacrene D] ?
14

Next up: CCCCCCCCC(C)=O [2-Decanone, 2-decanone]
9

* * *

Visual inspection (no of responses) Response by entry:
- Test system: bed bug antennae
- Procedure text: Coupled gas chromatography-electroantennography (GC-EAG) of volatile extract from bed bug-exposed paper
- Set-up: species or system Cimex lectularius
- Cond: total EAG responses, Table 8
Just the number, please.

Worked cases, answers included:
Molecule: CC1=CCC2C(C1)C2(C)C (single isomer, unassigned) [3-Carene, 3-carene]
Assayed target: bed bug antennae
Result number: 11

Molecule: CCCCCCCCC=O [Nonanal, nonanal]
Assayed target: bed bug antennae
Result number: 17

Molecule: CCCCCCCCC(C)=O [2-Decanone, 2-decanone]
Assayed target: bed bug antennae
Result number: 9

Molecule: CCCCCCCC/C=C/C=O [(E)-2-Undecenal, (E)-2-undecenal]
Assayed target: bed bug antennae
Result number: 9

Molecule: CCCCCCCCCCCC [Dodecane, dodecane]
Assayed target: bed bug antennae
Result number: 16

Molecule: CCCCCCCCCC=O [Decanal, decanal]
Assayed target: bed bug antennae
Result number: 12

Molecule: CCCCOCCOCCOC(C)=O [2-(2-Butoxyethoxy)-acetate ethanol, 2-(2-butoxyethoxy)ethyl acetate]
Assayed target: bed bug antennae
Result number: 12

Molecule: O=Cc1ccccc1 (single isomer, unassigned) [Benzaldehyde, benzaldehyde]
Assayed target: bed bug antennae
Result number: 8

Molecule: CCCCCC/C=C/C=O [(E)-2-Nonenal, (E)-2-nonenal]
Assayed target: bed bug antennae
Result number: 13

Could you now consider this next molecule?
Suppose we examine the molecule C=C1/C=C/[C@H](C(C)C)CC/C(C)=C/CC1 [(S)-(−)-Germacrene D, (S)-(−)-germacrene D] ; what Visual inspection (no of responses) Response value has been reported?
14
